ASSAY_NOTES: The drug is tested on Alistipes indistinctus strain: DSM22520 for biotransformation. The drug concentrations were measured before and after a 12-h incubation by liquid-chromatography-coupled mass spectrometry (LC–MS)
CONDITION_DETAILS: 2 µM
ASSAY_READOUT: Bacterial Biotransformation

Examples with answers:
MOLECULE	RESULT
COc1cc2c(c(OC)c1OC)-c1ccc(OC)c(=O)cc1[C@@H](NC(C)=O)CC2 [COLCHICINE]	Compound NOT metabolized
CN1C(C(=O)Nc2ccccn2)=C(O)c2sccc2S1(=O)=O [TENOXICAM]	Compound NOT metabolized
CCS(=O)(=O)CCn1c([N+](=O)[O-])cnc1C [TINIDAZOLE]	Compound metabolized
CCOc1ccccc1OCCN[C@H](C)Cc1ccc(OC)c(S(N)(=O)=O)c1.Cl [TAMSULOSIN HYDROCHLORIDE]	Compound NOT metabolized
CC(=O)OCC(=O)[C@@]12N=C(C)O[C@@H]1C[C@H]1[C@@H]3CCC4=CC(=O)C=C[C@]4(C)[C@H]3[C@@H](O)C[C@@]12C [DEFLAZACORT]	Compound metabolized
CS(=O)(=O)O.O.O.O.O=C1Cc2cc(CCN3CCN(c4nsc5ccccc45)CC3)c(Cl)cc2N1 [ZIPRASIDONE MESYLATE]	Compound metabolized
CN1C(=O)CC(C)(c2ccccc2)C1=O (configuration not stated) [METHSUXIMIDE]	Compound NOT metabolized
COc1ccc2c3c1O[C@H]1C[C@@H](O)C=C[C@@]31CCN(C)C2 [GALANTAMINE]	Compound metabolized
CN1CCN(C2=Nc3ccccc3Oc3ccc(Cl)cc32)CC1.O=C(O)CCC(=O)O [LOXAPINE SUCCINATE]	Compound NOT metabolized
CC(NC(C)(C)C)C(=O)c1cccc(Cl)c1 (configuration not stated) [BUPROPION]	Compound NOT metabolized

INPUT: Can you share its Bacterial Biotransformation? I mean this molecule: Nc1nc(NC2CC2)c2ncn([C@H]3C=C[C@@H](CO)C3)c2n1.Nc1nc(NC2CC2)c2ncn([C@H]3C=C[C@@H](CO)C3)c2n1.O=S(=O)(O)O [ABACAVIR SULFATE]
OUTPUT: Compound NOT metabolized

INPUT: Any idea what its Bacterial Biotransformation is? The molecule is O=C(NC(Cc1cc(=O)[nH]c2ccccc12)C(=O)O)c1ccc(Cl)cc1 (configuration not stated) [REBAMIPIDE]
OUTPUT: Compound NOT metabolized

INPUT: Entry Cc1cn([C@H]2C[C@H](N=[N+]=[N-])[C@@H](CO)O2)c(=O)[nH]c1=O [ZIDOVUDINE] has what Bacterial Biotransformation?
OUTPUT: Compound NOT metabolized

INPUT: Consider the molecule CC(=O)O[C@]1(C(C)=O)CC[C@H]2[C@@H]3C=C(C)C4=CC(=O)CC[C@]4(C)[C@H]3CC[C@@]21C [MEGESTROL ACETATE] and give its measured Bacterial Biotransformation.
OUTPUT: Compound metabolized

INPUT: Given NC(=O)N1c2ccccc2CC(=O)c2ccccc21 [OXCARBAZEPINE] , state its recorded Bacterial Biotransformation.
OUTPUT: Compound metabolized

INPUT: I have this molecule here, CCc1nn(CCCN2CCN(c3cccc(Cl)c3)CC2)c(=O)n1CCOc1ccccc1 [NEFAZODONE] , and I need its recorded Bacterial Biotransformation.
OUTPUT: Compound NOT metabolized

INPUT: Quick one: Bacterial Biotransformation of CN1CCc2cccc3c2[C@H]1Cc1ccc(O)c(O)c1-3 [APOMORPHINE] ?
OUTPUT: Compound NOT metabolized

====

ASSAY_NOTES: The drug is tested on Providencia stuartii strain: ATCC25827 for biotransformation. The drug concentrations were measured before and after a 12-h incubation by liquid-chromatography-coupled mass spectrometry (LC–MS)
CONDITION_DETAILS: 2 µM
ASSAY_READOUT: Bacterial Biotransformation

Recorded Bacterial Biotransformation, per entry:
COMPOUND	Bacterial Biotransformation
COc1ccccc1N1CCN(CC(O)COc2cccc3ccccc23)CC1 (stereo not drawn)	Compound NOT metabolized
CC[C@@H](CO)NC(=O)[C@@H]1C=C2c3cccc4c3c(cn4C)C[C@H]2N(C)C1.O=C(O)/C=C\C(=O)O [METHYSERGIDE MALEATE]	Compound metabolized
CCN(CC)C(=O)/C(C#N)=C/c1cc(O)c(O)c([N+](=O)[O-])c1	Compound metabolized
C=C[C@H]1CN2CC[C@H]1C[C@H]2[C@H](O)c1ccnc2ccc(OC)cc12.C=C[C@H]1CN2CC[C@H]1C[C@H]2[C@H](O)c1ccnc2ccc(OC)cc12.O.O.O=S(=O)(O)O [QUININE SULFATE]	Compound NOT metabolized
CN/C(=N/CCSCc1nc[nH]c1C)NC#N	Compound NOT metabolized
CCOC(=O)[C@H](CCc1ccccc1)N[C@@H](C)C(=O)N1Cc2ccccc2C[C@H]1C(=O)O	Compound metabolized
CNS(=O)(=O)Cc1ccc2[nH]cc(CCN(C)C)c2c1.O=C(O)CCC(=O)O [SUMATRIPTAN SUCCINATE]	Compound NOT metabolized

Then there is this compound:
INPUT: Would you kindly share the measured Bacterial Biotransformation for COc1ccccc1OCC(O)COC(N)=O (stereo not drawn) ?
OUTPUT: Compound NOT metabolized

====

ASSAY_NOTES: The drug is tested on Clostridium asparagiforme strain: DSM15981 for biotransformation. The drug concentrations were measured before and after a 12-h incubation by liquid-chromatography-coupled mass spectrometry (LC–MS)
Assay type: ADME
Design: dose 2 uM, timepoint 0 vs 12 hours
CONDITION_DETAILS: enterocloster asparagiformis, 2 µM
ASSAY_READOUT: Bacterial Biotransformation

Reference set (5 entries):
                                   molecule                    result
0  O=C(O)CCC(=O)O.O=C(O[C@H]1CN2CCC1CC2)N1CCc2ccccc2[C@@H]1c1ccccc1 [SOLIFENACIN SUCCINATE]  Compound NOT metabolized
1                 COc1c2occc2cc2ccc(=O)oc12      Compound metabolized
2  CCC(C)n1ncn(-c2ccc(N3CCN(c4ccc(OCC5COC(Cn6cncn6)(c6ccc(Cl)cc6Cl)O5)cc4)CC3)cc2)c1=O (stereo not drawn)  Compound NOT metabolized
3  CC[C@@H](CO)NC(=O)[C@@H]1C=C2c3cccc4c3c(cn4C)C[C@H]2N(C)C1.O=C(O)/C=C\C(=O)O [METHYSERGIDE MALEATE]      Compound metabolized
4     O=C(O)CCc1nc(-c2ccccc2)c(-c2ccccc2)o1      Compound metabolized

INPUT: Can you share its Bacterial Biotransformation? I mean this molecule: NC(CO)(CO)CO.O=C(c1ccccc1)c1ccc2n1CCC2C(=O)O (stereo not drawn)
OUTPUT: Compound NOT metabolized

INPUT: So what's the measured Bacterial Biotransformation for this one? COc1ccc2[nH]c([S+]([O-])Cc3ncc(C)c(OC)c3C)nc2n1 (stereo not drawn)
OUTPUT: Compound metabolized

INPUT: Bench note: what Bacterial Biotransformation did c1ccc([C@H]2CN3CCSC3=N2)cc1 show?
OUTPUT: Compound metabolized

====

ASSAY_NOTES: The drug is tested on Bifidobacterium breve strain: DSM20213 for biotransformation. The drug concentrations were measured before and after a 12-h incubation by liquid-chromatography-coupled mass spectrometry (LC–MS)
CONDITION_DETAILS: 2 µM
ASSAY_READOUT: Bacterial Biotransformation

COMPOUND	Bacterial Biotransformation
CC(=O)O[C@]1(C(C)=O)CC[C@H]2[C@@H]3C=C(Cl)C4=CC(=O)[C@@H]5C[C@@H]5[C@]4(C)[C@H]3CC[C@@]21C [CYPROTERONE ACETATE]	Compound NOT metabolized
CN/C(=N/CCSCc1nc[nH]c1C)NC#N	Compound NOT metabolized
CC(C)NCC(O)COc1ccc(COCCOC(C)C)cc1.CC(C)NCC(O)COc1ccc(COCCOC(C)C)cc1.O=C(O)/C=C/C(=O)O (stereo not given) [BISOPROLOL FUMARATE]	Compound NOT metabolized
C=CCN1CC[C@]23c4c5ccc(O)c4O[C@H]2C(=O)CC[C@@]3(O)[C@H]1C5	Compound NOT metabolized
c1ccc([C@H]2CN3CCSC3=N2)cc1	Compound metabolized

INPUT: # Bacterial Biotransformation lookup, item CCCC(=O)Nc1ccc(OCC(O)CNC(C)C)c(C(C)=O)c1 (stereo not given)
OUTPUT: Compound NOT metabolized

INPUT: Which Bacterial Biotransformation value is on record for C#C[C@]1(O)CC[C@H]2[C@@H]3CCC4=Cc5oncc5C[C@]4(C)[C@H]3CC[C@@]21C ?
OUTPUT: Compound metabolized

INPUT: Entry CC(C)c1nc(N(C)S(C)(=O)=O)nc(-c2ccc(F)cc2)c1/C=C/[C@@H](O)C[C@@H](O)CC(=O)[O-].CC(C)c1nc(N(C)S(C)(=O)=O)nc(-c2ccc(F)cc2)c1/C=C/[C@@H](O)C[C@@H](O)CC(=O)[O-].[Ca+2] : reported Bacterial Biotransformation = ?
OUTPUT: Compound NOT metabolized

INPUT: # get_value(readout='Bacterial Biotransformation', item= O=c1n(CCCN2CCN(c3cccc(Cl)c3)CC2)nc2ccccn12 )
OUTPUT: Compound NOT metabolized

// provenance: ChEMBL document CHEMBL5303573
